- experimental_system: UniProt:P29371
- Sequence (P29371 whole entry): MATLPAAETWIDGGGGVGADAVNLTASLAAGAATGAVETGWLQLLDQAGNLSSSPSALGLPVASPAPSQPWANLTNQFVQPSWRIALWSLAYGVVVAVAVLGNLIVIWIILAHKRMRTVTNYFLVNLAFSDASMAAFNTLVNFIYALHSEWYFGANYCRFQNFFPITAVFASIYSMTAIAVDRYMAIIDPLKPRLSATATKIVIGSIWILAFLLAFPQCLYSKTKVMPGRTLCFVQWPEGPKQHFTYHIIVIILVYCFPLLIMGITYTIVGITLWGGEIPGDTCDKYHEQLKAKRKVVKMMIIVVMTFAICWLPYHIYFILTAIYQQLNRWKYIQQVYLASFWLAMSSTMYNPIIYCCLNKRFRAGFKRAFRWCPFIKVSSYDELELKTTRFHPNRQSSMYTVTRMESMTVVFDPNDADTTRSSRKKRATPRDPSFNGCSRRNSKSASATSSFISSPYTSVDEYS
- measurement_notes: Compound was tested for its ability to displace [3H]senktide binding to human Tachykinin receptor 3 expressed in CHO cells
readout: pIC50
Give bare numbers, as −log10 of the molar value.

Input line: Identify pIC50 associated with the compound O=C(/C=C/c1ccccc1)N1CCN(C(c2ccccc2)c2ccc(Cl)cc2)CC1 (stereo unspecified)
Output line: 4.22

Origin of values: ChEMBL document CHEMBL1128030
